Source of measurements: paper PMC5540273

# Test system: PIP5K1A
# test_settings: concentration: 1 μM, replicates: in singlicate; n = 1;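 also: KINOMEscan kinase panel screen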
Below is a list of entries, each paired with its recorded %Inh value.
The reply should contain only the number, in %.

As a guide, the following entries are already answered.
>>> experimental_result("O=c1cc(N2CCOCC2)nc2n(Cc3cccc(C(F)(F)F)c3)ccn12 [GSK2297543]")
0
>>> experimental_result("COc1cc2c(cc1OC[C@@H](O)CO)ncc1c3ccc(C#N)cc3[nH]c21")
38
>>> experimental_result("O=C1NC(=O)C(N2CCc3ccccc32)=C1c1cccc(Cl)c1 [SB-408010]")
0
>>> experimental_result("CSc1ccc(-c2cc3ncnc(SCC(=O)O)c3s2)cc1")
0
>>> experimental_result("Nc1nccc(-c2c(-c3ccc(F)cc3)ncn2C2CCN(CC(F)(F)F)CC2)n1 [SB-236560]")
47

Would you kindly share the measured %Inh for `CN1c2ccc(NCc3ccc(F)cc3)cc2-c2c(cnn2C)S1(=O)=O` ?
31

Would you kindly share the measured %Inh for COC(=O)Nc1nc2cc(Oc3ccc(NC(=O)Nc4cc(F)ccc4F)cc3)ccc2[nH]1.Cl [GW701424] ?
41

###

# Test system: ANKK1
# test_settings: concentration: 1 μM, replicates: in singlicate; n = 1
Below is a list of entries, each paired with its recorded %Inh value.
The reply should contain only the number, in %.

Would you kindly share the measured %Inh for CCCCCc1nc2c(N)ncnc2n1CCCCC [SKF-97255] ?
0

###

# Tested on: TXK
# test_settings: concentration: 1 μM, replicates: in singlicate; n = 1
Below is a list of entries, each paired with its recorded %Inh value.
The reply should contain only the number, in %.

As a guide, the following entries are already answered.
>>> experimental_result("CCn1cnc2c(N)ncnc21")
8
>>> experimental_result("N#Cc1ccc(-c2cc(-c3c[nH]nc3-c3ccccn3)ccn2)cc1")
6

Would you kindly share the measured %Inh for `O=C(NCCNc1ccnc(Nc2ccc(F)cc2)n1)c1cc2ccccc2s1` ?
100

###

# System: JAK2(JH1domain-catalytic)
# test_settings: concentration: 1 μM, replicates: in singlicate; n = 1
Below is a list of entries, each paired with its recorded %Inh value.
The reply should contain only the number, in %.

>>> experimental_result("CC(=O)Nc1ccc(COc2ccc(Nc3ccnc4cc(-c5ccccn5)ccc34)cc2)cc1.Cl")
18
>>> experimental_result("COC(=O)Nc1nc2cc(Oc3ccc(NC(=O)Nc4cc(F)ccc4F)cc3)ccc2[nH]1.Cl")
1

Would you kindly share the measured %Inh for COc1ccc(Nc2nccc(N3CCC(NC(=O)Nc4cccc(C(C)=O)c4)C3)n2)cc1 (centres unmarked) ?
17

Would you kindly share the measured %Inh for `O=C(NOCC1CC1)c1ccc(F)c(F)c1Nc1ccc(I)cc1Cl` ?
0

Would you kindly share the measured %Inh for `Fc1ccc(-c2ncn(CCCN3CCOCC3)c2-c2ccccn2)cc1` ?
0

Would you kindly share the measured %Inh for `Cc1cccc(-c2nc(-c3ccc(S(C)(=O)=O)cc3)sc2-c2ccncc2)c1` ?
0

Would you kindly share the measured %Inh for Cc1nnc(-c2ccc3ncc(-c4ccc(S(C)=O)cc4)n3c2)o1 (centres unmarked) ?
0

Would you kindly share the measured %Inh for `Cc1cn2c(=O)cc(N3CCOCC3)nc2n1Cc1cccc(Cl)c1Cl` ?
2
